B1: Osa-1-4 twister ribozyme (parent)
chain: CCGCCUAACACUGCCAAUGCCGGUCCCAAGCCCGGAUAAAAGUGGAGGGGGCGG

Variants of: B1
Assay: self-cleavage, relative activity (ratio to wild type); higher = more cleavage; co-transcriptional
Is self-cleavage at least 0.2? Then met. If not, not met.

# example entries with known answers
> print(dat)
                              chain.sequence  class.assignment
 1  CCGCCUAACAAUACCAAUGCCGGUCCCAAGCCCGGAUAAAAGUGGAGGGGGCGG [C11A G13A]           not met
 2  CCGCCUAACACAGCGAAUGCCGGUCCCAAGCCCGGAUAAAAGUGGAGGGGGCGG [C15G U12A]           not met
 3  CCGCCUAACACUGCCAAUGCCGGUCCGAAACCCGGAUAAAAGUGGAGGGGGCGG [C27G G30A]           not met
 4  CCGCCUAAAACUGCCAAUGCCGGUCACAAGCCCGGAUAAAAGUGGAGGGGGCGG [C26A C9A]           not met
 5  CCGCCUAACACUGCCAAUACCGGUCCCAAGCCCGGAUAAAAGUGGAGCGGGCGG [G19A G48C]           not met
 6  CCGCCUAACACUGCCAAUGCCAGUCCCAAGCCCGGGUAAAAGUGGAGGGGGCGG [A36G G22A]               met
 7  CCGCCUAACACUUCCAAUGCCGGUCCCAAGCCCGGAUUAAAGUGGAGGGGGCGG [A38U G13U]           not met
 8  CCGCCUAACACUGCCAAUGCCGGUCCCAAGCCCGGAUAUAAGUGGAGGGAGCGG [A39U G50A]               met
 9  CCGCCUCACCCUGCCAAUGCCGGUCCCAAGCCCGGAUAAAAGUGGAGGGGGCGG [A10C A7C]           not met
10  CCGCCUAACACUGCCAAUGCCGGUCCCAAGCCGGAAUAAAAGUGGAGGGGGCGG [C33G G35A]           not met

// query Is self-cleavage for CCGCCUAGCACUGCCAAUGCCGGUCACAAGCCCGGAUAAAAGUGGAGGGGGCGG [A8G C26A] at or above 0.2?
// result not met

// query Please tell me: is the variant CCGCCUAACACUGCCAAUGCCGGUCCCAAGCCCGGAUAAAAGUGGGAGGGGCGG [A46G G47A] at or over 0.2 in terms of self-cleavage?
// result not met

// query Tell me whether self-cleavage is at least 0.2 here: CCGCCUAACACUCCCAAUGCCGGUCCCAAGCCCGGAUAAAAGUGGAGGGGUCGG [G13C G51U]
// result not met

// query Quick check, self-cleavage >= 0.2? CCGCCUAACACUGCCAAUGCCGGUCCCAAGCCCGGAUAAAAAUAGAGGGGGCGG [G42A G44A]
// result met

// query Identify whether the reported self-cleavage of the following variant is 0.2 or greater: CCGCCUAACACUGCCAAUGCCGGACCCAAGCCCGGAUAAAAGUGGAGGGGGGGG [C52G U24A]
// result met

// query In plain terms: is recorded self-cleavage at least 0.2 for CCGCCUAACACUGCCAAUGCCGGUCCCAAUCCCGGGUAAAAGUGGAGGGGGCGG [A36G G30U] ?
// result not met
